Data credit: patent US20190367592A1

- SUBJECT_OF_TEST: T1, Tau fragment 37-51 (human, UniProt P10636-8 37-51)
- T1 construct: range 37-51
- T1 peptide (looked up): GDTDAGLKESPLQTP
- PROTOCOL_TEXT: ELISA on Tau 15-mer peptides, O.D.; conditions of this panel not given
ENDPOINT_LABEL: binding result

GET /value?item= 89F4-A1 (antibody, mouse IgG2a, V domains shown) VH: EVQLVESGGGLVQPKGSLKLSCAASGFTFNTYAMNWVRQAPGKGLEWVARIRSKSNNYAAYFADSVKDRFTISRDDSQTMLYLQMNNLKSEDTAMYYCVSGGNYVPFAYWGQGTLVTVSA VL: NIMMTQSPSSLAVSAGEKVTMSCKSSQSVFYSSEQRNYLAWYQQKPGQSPKLLISWASTRESGVPDRFTGSGSGTDFTLTISSVQGEDLAVYYCHQYLSSFTFGSGTKLEIK &field=binding result returns binds
